Target: FGFR2b Ig-like domains 2-3 (UniProt P21802-3 140-369)
Experiment: ITC
measured.parameter: Kd (nM)

[[record]]
binder = "TGTTGGGAGGGGATGGGACGTATAGGTAAGGGCGGGGGTGGACACG (structured_DNA) [Apt_46]"
measured_parameter = "Kd"
unit_of_measure = "nM"
reported_result = 46.3

